Test system: Enterococcus faecalis
TEST_PROTOCOL: Minimum inhibitory concentration against Enterococcus faecalis MTCC 439
Assay type: functional
QUANTITY_KIND: MIC (µg/mL)
Kindly answer with a numeric value in µg/mL, unit omitted.

Check out these entries, answers already filled in.
MIC recorded for this compound, CC(=O)NC[C@H]1CN(c2ccc(N3CCN(C(=O)/C=C/c4ccc(OS(C)(=O)=O)cc4)CC3)c(F)c2)C(=O)O1 , is 4

For this compound ( N=C(S)NC[C@H]1CN(c2ccc(N3CCN(C(=O)/C=C/c4ccc5c(c4)OCO5)CC3)c(F)c2)C(=O)O1 ), measured MIC is 0.25

For this compound ( CC(=O)NC[C@H]1CN(c2ccc(N3CCN(C(=O)/C=C/c4ccc(N)cc4)CC3)c(F)c2)C(=O)O1 ), measured MIC is 1

The compound listed as CC(=O)NC[C@H]1CN(c2ccc(N3CCN(C(=O)/C=C/c4ccc([N+](=O)[O-])cc4)CC3)c(F)c2)C(=O)O1 has a reported MIC of 4

Short answer for CC(=O)NC[C@H]1CN(c2ccc(N3CCN(C(=O)/C=C/c4ccc(OC(C)=O)c(OC(C)=O)c4)CC3)c(F)c2)C(=O)O1 : MIC was 2

Continuing:
MIC measured on CC(=O)NC[C@H]1CN(c2ccc(N3CCN(C(=O)/C=C/c4ccc(O)cc4)CC3)c(F)c2)C(=O)O1 = 1

The recorded MIC for CC(=O)NC[C@H]1CN(c2ccc(N3CCN(C(=O)/C=C/c4cccc(O)c4)CC3)c(F)c2)C(=O)O1 is 1

Lab book: MIC of C/C(S)=N/C[C@H]1CN(c2ccc(N3CCN(C(=O)/C=C/c4ccc(F)cc4)CC3)c(F)c2)C(=O)O1 noted as 0.5

The compound listed as CC(=O)NC[C@H]1CN(c2ccc(N3CCN(C(=O)/C=C/c4ccc(F)cc4)CC3)c(F)c2)C(=O)O1 has a reported MIC of 4

Form: compound = CC(=O)NC[C@H]1CN(c2ccc(N3CCN(C(=O)/C=C/c4ccc5c(c4)OCO5)CC3)c(F)c2)C(=O)O1 ; MIC = 1

The reported MIC of the compound C/C(S)=N/C[C@H]1CN(c2ccc(N3CCN(C(=O)/C=C/c4ccc(O)cc4)CC3)c(F)c2)C(=O)O1 was 1

// recorded MIC for CC(=O)NC[C@H]1CN(c2ccc(N3CCN(C(=O)CO)CC3)c(F)c2)C(=O)O1 [EPEREZOLID] : 4

compound CC(=O)NC[C@H]1CN(c2ccc(N3CCN(C(=O)/C=C/c4ccc(O)c(O)c4)CC3)c(F)c2)C(=O)O1 , MIC observed: 8

Reported MIC of CC(=O)NC[C@H]1CN(c2ccc(N3CCN(C(=O)/C=C/c4ccccc4)CC3)c(F)c2)C(=O)O1 : 2

Record summary for CSc1ccc(/C=C/C(=O)N2CCN(c3ccc(N4C[C@H](CNC(C)=O)OC4=O)cc3F)CC2)cc1 : reported MIC = 2

Reported MIC of CC(=O)NC[C@H]1CN(c2ccc(N3CCN(C(=O)/C=C/c4ccc(OC(=O)C(C)(C)C)cc4)CC3)c(F)c2)C(=O)O1 : 8

Summary for this compound, COc1ccc(/C=C/C(=O)N2CCN(c3ccc(N4C[C@H](CNC(C)=O)OC4=O)cc3F)CC2)cc1 : MIC is 4

Entry C/C(S)=N/C[C@H]1CN(c2ccc(N3CCN(C(=O)/C=C/c4ccc5c(c4)OCO5)CC3)c(F)c2)C(=O)O1 , MIC reported as 8

Entry CC(=O)NC[C@H]1CN(c2ccc(N3CCN(C(=O)/C=C/c4ccc(NC(C)=O)cc4)CC3)c(F)c2)C(=O)O1 , MIC reported as 4

Briefly, MIC measured for NC(=S)NC[C@H]1CN(c2ccc(N3CCN(C(=O)/C=C/c4ccccc4)CC3)c(F)c2)C(=O)O1 : 0.5

MIC reading for C/C(S)=N/C[C@H]1CN(c2ccc(N3CCN(C(=O)/C=C/c4ccccc4)CC3)c(F)c2)C(=O)O1 : 0.5

###

System: Bacillus cereus
TEST_PROTOCOL: Minimum inhibitory concentration against Bacillus cereus MTCC 430
Assay type: functional
QUANTITY_KIND: MIC (µg/mL)
Quick reminder: number only, in µg/mL, skip the unit.

Sample answers from the record:
# molecule C/C(S)=N/C[C@H]1CN(c2ccc(N3CCN(C(=O)/C=C/c4ccc(F)cc4)CC3)c(F)c2)C(=O)O1 ; its MIC = 0.5

Just so you know, measured MIC for CSc1ccc(/C=C/C(=O)N2CCN(c3ccc(N4C[C@H](CNC(C)=O)OC4=O)cc3F)CC2)cc1 came out at 2

Entry CC(=O)NC[C@H]1CN(c2ccc(N3CCN(C(=O)CO)CC3)c(F)c2)C(=O)O1 [EPEREZOLID] , MIC reported as 2

Kindly note the recorded MIC for CC(=O)NC[C@H]1CN(c2ccc(N3CCN(C(=O)/C=C/c4cccc(O)c4)CC3)c(F)c2)C(=O)O1 , which is 0.5

For record CC(=O)NC[C@H]1CN(c2ccc(N3CCN(C(=O)/C=C/c4ccc5c(c4)OCO5)CC3)c(F)c2)C(=O)O1 the listed MIC is 1

New cases:
// CC(=O)NC[C@H]1CN(c2ccc(N3CCOCC3)c(F)c2)C(=O)O1 [LINEZOLID] : MIC value = 2

// recorded MIC for CC(=O)NC[C@H]1CN(c2ccc(N3CCN(C(=O)/C=C/c4ccc(O)c(O)c4)CC3)c(F)c2)C(=O)O1 : 16

// sample CC(=O)NC[C@H]1CN(c2ccc(N3CCN(C(=O)/C=C/c4ccc(OC(C)=O)c(OC(C)=O)c4)CC3)c(F)c2)C(=O)O1 , its MIC was 2

Lab book: MIC of CC(=O)NC[C@H]1CN(c2ccc(N3CCN(C(=O)/C=C/c4ccc(NC(C)=O)cc4)CC3)c(F)c2)C(=O)O1 noted as 4

Form field MIC, entry CC(=O)NC[C@H]1CN(c2ccc(N3CCN(C(=O)/C=C/c4ccc(N)cc4)CC3)c(F)c2)C(=O)O1 : 1

###

Listing of recorded MIC by entry.
Test system: Staphylococcus aureus
TEST_PROTOCOL: Minimum inhibitory concentration against Staphylococcus aureus MTCC 96
Format: functional
Kindly answer with a numeric value in µg/mL, unit omitted.

Look over these answered cases.
Reported MIC ( CC(=O)NC[C@H]1CN(c2ccc(N3CCN(C(=O)/C=C/c4ccc(OC(C)=O)c(OC(C)=O)c4)CC3)c(F)c2)C(=O)O1 ) = 4

Measured MIC, C/C(S)=N/C[C@H]1CN(c2ccc(N3CCN(C(=O)/C=C/c4ccc(F)cc4)CC3)c(F)c2)C(=O)O1 : 1

Next, consider the following compound.
The compound CC(=O)NC[C@H]1CN(c2ccc(N3CCN(C(=O)/C=C/c4ccc(F)cc4)CC3)c(F)c2)C(=O)O1 showed MIC equal to 16

###

Test system: Enterococcus faecalis
TEST_PROTOCOL: Minimum inhibitory concentration against Enterococcus faecalis ATCC 14506
Assay type: functional
The entries below are paired with their reported MIC.
Express it in µg/mL; write the number only.

Hey, Enterococcus faecalis data for CC(=O)NC[C@H]1CN(c2ccc(N3CCN(C(=O)/C=C/c4cccc(O)c4)CC3)c(F)c2)C(=O)O1 : MIC came out at 1

So the reported MIC for N=C(S)NC[C@H]1CN(c2ccc(N3CCN(C(=O)/C=C/c4ccc5c(c4)OCO5)CC3)c(F)c2)C(=O)O1 , on Enterococcus faecalis, turned out to be 0.5

Item C/C(S)=N/C[C@H]1CN(c2ccc(N3CCN(C(=O)/C=C/c4ccc5c(c4)OCO5)CC3)c(F)c2)C(=O)O1 was tested on Enterococcus faecalis; the reported MIC is 0.25

Here CC(=O)NC[C@H]1CN(c2ccc(N3CCN(C(=O)/C=C/c4ccccc4)CC3)c(F)c2)C(=O)O1 was tested on Enterococcus faecalis, and its MIC came to 1

Test item NC(=S)NC[C@H]1CN(c2ccc(N3CCN(C(=O)/C=C/c4ccccc4)CC3)c(F)c2)C(=O)O1 ; Enterococcus faecalis; reported MIC was 0.5

GET /values?item= CC(=O)NC[C@H]1CN(c2ccc(N3CCN(C(=O)/C=C/c4ccc(O)cc4)CC3)c(F)c2)C(=O)O1 &system= Enterococcus faecalis returns MIC: 2

Others:
Given the compound C/C(S)=N/C[C@H]1CN(c2ccc(N3CCN(C(=O)/C=C/c4ccc(F)cc4)CC3)c(F)c2)C(=O)O1 and test system Enterococcus faecalis, the measured MIC is 2

Measured MIC for this entry C/C(S)=N/C[C@H]1CN(c2ccc(N3CCN(C(=O)/C=C/c4ccccc4)CC3)c(F)c2)C(=O)O1 on Enterococcus faecalis: 0.5

Entry CC(=O)NC[C@H]1CN(c2ccc(N3CCN(C(=O)CO)CC3)c(F)c2)C(=O)O1 [EPEREZOLID] , Enterococcus faecalis data, MIC value: 2

The value of MIC recorded for CC(=O)NC[C@H]1CN(c2ccc(N3CCN(C(=O)/C=C/c4ccc5c(c4)OCO5)CC3)c(F)c2)C(=O)O1 when tested on Enterococcus faecalis reads 2

# value of MIC, Enterococcus faecalis, item C/C(S)=N/C[C@H]1CN(c2ccc(N3CCN(C(=O)/C=C/c4ccc(O)cc4)CC3)c(F)c2)C(=O)O1 = 0.25
